- Tgt: MK2 (Homo sapiens)
- Test Summary: MK2 degradation in human SW1353 cells (MSD, 24 h)
- Assay type: cell-based
- Set-up: endogenous in cells; host or cells: SW-1353 (ATCC HTB-94)
- Applied Conditions: read-out: MK2 MSD SW 1353 24 h Dmax %
Property Label: Dmax

Would you please look over these solved cases?
{"columns": ["Compound", "Tgt", "Dmax"],
 "data": [
  ["Cn1c(=O)n(C2CCC(=O)NC2=O)c2ccc(N3CC(CN4CCN(c5ccc(-c6cc(-c7cc8c(o7)C7(CC7)CNC8=O)ccn6)cc5)CC4)C3)cc21 (stereo not shown)", "MK2 (Homo sapiens)", "> 75%"],
  ["Cn1c(=O)n(C2CCC(=O)NC2=O)c2ccc(N3CC(CN4CCN(c5ccc(-c6nccc(-c7cc8c([nH]7)C7(CC7)CNC8=O)n6)cc5OC5CC5)CC4)C3)cc21 (stereo not shown)", "MK2 (Homo sapiens)", "> 50%"],
  ["Cn1c(=O)n(C2CCC(=O)NC2=O)c2ccc(N3CC(CN4CCN(c5ccc(-c6nccc(-c7cc8c([nH]7)C7(CC7)CNC8=O)n6)cc5C(F)(F)F)CC4)C3)cc21 (stereo not shown)", "MK2 (Homo sapiens)", "50 to 75%"],
  ["C[C@@H]1CNc2c(sc3ccc4nc(N5CCN(C[C@H]6C[C@@]7(CCN(c8ccc9c(c8)n(C)c(=O)n9C8CCC(=O)NC8=O)C7)C6)CC5)ccc4c23)C(=O)N1 (stereo partly shown)", "MK2 (Homo sapiens)", "> 75%"],
  ["C[C@@H]1CNc2c(sc3ccc4nc(N5CCC(CN6CCC7(CC6)CN(c6ccc8c(c6)n(C)c(=O)n8C6CCC(=O)N(C)C6=O)C7)CC5)ccc4c23)C(=O)N1 (stereo partly shown)", "MK2 (Homo sapiens)", "> 75%"]
]}

Request: Tell us which Dmax value is on record for `O=C1CCN(c2cncc3c(CCN4CCN(c5ccc(-c6nccc(-c7cc8c([nH]7)C7(CCC7)CNC8=O)n6)c(F)c5)CC4)cccc23)C(=O)N1`
Response: > 75%

Request: Given C[C@@H]1CNc2c(sc3ccc4nc(N5CC[C@H](N(C)C6CC7(CCN(c8ccc9c(c8)n(C)c(=O)n9C8CCC(=O)NC8=O)CC7)C6)C(F)(F)C5)ccc4c23)C(=O)N1 (stereo partly shown) , respond with its Dmax.
Response: > 75%

Request: Return Dmax (reported value) for this compound: `C[C@@H]1CNc2c(sc3ccc4nc(N5CCN(CC6CC7(CCN(c8ccc9c(N%10CCC(=O)NC%10=O)cncc9c8)CC7)C6)CC5)ccc4c23)C(=O)N1`
Response: > 75%

Request: Report Dmax, nothing else, for this compound: Cn1c(=O)n(C2CCC(=O)NC2=O)c2cccc(OCCN3CCN(c4ccc(-c5nccc(-c6cc7c([nH]6)C6(CC6)CNC7=O)n5)c(F)c4)CC3)c21 (stereo not shown)
Response: > 75%

Request: Report Dmax for Cn1c(=O)n(C2CCC(=O)NC2=O)c2ccc(N3CC(CN4CCN(c5ccc(-c6nccc(-c7cc8c([nH]7)C7(CC7)CNC8=O)n6)cc5)CC4)C3)cc21 (stereo not shown)
Response: > 50%

Request: Using known records, supply Dmax for C[C@@H]1CNc2c(sc3ccc4nc(N5CCC(N(CC(F)F)C6CC7(CCN(c8ccc9c(c8)n(C)c(=O)n9C8CCC(=O)NC8=O)CC7)C6)CC5)ccc4c23)C(=O)N1 (stereo partly shown)
Response: > 75%

Request: Tell us which Dmax value is on record for C[C@@H]1CNc2c(sc3ccc4nc(N5CCC(OC6CCC7(CC6)CN(c6ccc8c(c6)n(C)c(=O)n8C6CCC(=O)NC6=O)C7)CC5)ccc4c23)C(=O)N1 (stereo partly shown)
Response: > 75%

Request: Determine from records and report Dmax for `C[C@@H]1CNc2c(sc3ccc4nc(N5CCN(CCC6CC7(CCN(C(=O)c8ccc(Cl)c(N9CCC(=O)NC9=O)c8)CC7)C6)CC5)ccc4c23)C(=O)N1`
Response: > 75%

Request: State, in one line, measured Dmax of C[C@@H]1CNc2c(sc3ccc4nc(N5CCC(COC6CCN(c7ccc8c(c7)n(C)c(=O)n8C7CCC(=O)NC7=O)CC6)CC5)ccc4c23)C(=O)N1 (stereo partly shown)
Response: 50 to 75%

---

// values below are reported DC50
- Tgt: MK2 (Homo sapiens, UniProt P49137)
- Sequence (P49137 whole entry): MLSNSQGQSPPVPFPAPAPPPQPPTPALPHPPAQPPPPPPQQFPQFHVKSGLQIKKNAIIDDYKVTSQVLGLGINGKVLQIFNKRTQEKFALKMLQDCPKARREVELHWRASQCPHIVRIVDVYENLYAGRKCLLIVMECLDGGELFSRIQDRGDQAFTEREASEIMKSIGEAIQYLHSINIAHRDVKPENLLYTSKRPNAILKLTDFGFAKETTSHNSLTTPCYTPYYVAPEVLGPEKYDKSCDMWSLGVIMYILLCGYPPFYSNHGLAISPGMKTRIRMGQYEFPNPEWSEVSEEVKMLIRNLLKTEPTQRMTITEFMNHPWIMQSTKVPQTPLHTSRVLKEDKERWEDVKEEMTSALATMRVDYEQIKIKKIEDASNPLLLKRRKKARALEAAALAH
- Test Summary: MK2 degradation in human SW1353 cells (MSD, 24 h)
- Assay type: cell-based
- Design: endogenous in cells; host or cells: SW-1353 (ATCC HTB-94)
- Applied Conditions: read-out: MK2 MSD SW1353 degradation 24 h GMean External Abs DC50

Examples with answers:
{"columns": ["Molecule", "Result"],
 "data": [
  ["Cn1c(=O)n(C2CCC(=O)NC2=O)c2cccc(N3CCC(N4CCN(c5ccc(-c6nccc(-c7cc8c([nH]7)C7(CCCC7)CNC8=O)n6)cc5)CC4)C3)c21 (centres unmarked)", "1 to 10 nM"],
  ["Cn1c(=O)n(C2CCC(=O)NC2=O)c2ccc(N3CC(CN4CCN(c5ccc(-c6cc(-c7cc8c(o7)C7(CC7)CNC8=O)ncn6)cc5)CC4)C3)cc21 (centres unmarked)", "> 100 nM"],
  ["C[C@@H]1CNc2c(sc3ccc4nc(N5CCN(CC6CCC7(CC6)CN(c6ccc(NC8CCC(=O)NC8=O)cc6F)C7)CC5)ccc4c23)C(=O)N1 (some centres unmarked)", "1 to 10 nM"]
]}

Request: # return DC50 for Cn1c(=O)n(C2CCC(=O)NC2=O)c2ccc(N3CC(CN4CCN(c5ccc(-c6nccc(-c7cc8c([nH]7)C(C)(C)CNC8=O)n6)cc5)CC4)C3)cc21 (centres unmarked) , test system: MK2 (Homo sapiens, UniProt P49137)
Response: < 1 nM

Request: Enter DC50 (test system MK2 (Homo sapiens, UniProt P49137)) for `C[C@@H]1CNc2c(sc3ccc4nc(N5CCN(CCC6CC7(CCN(C(=O)c8ccc(Cl)c(N9CCC(=O)NC9=O)c8)CC7)C6)CC5)ccc4c23)C(=O)N1`
Response: < 1 nM

---

- Tgt: MK2 (Homo sapiens)
- Test Summary: MK2 degradation in human THP-1 monocytic cells (MSD, 24 h)
- Type: cell-based
- Parameters: endogenous in cells
- Applied Conditions: THP-1 cells
Property Label: Dmax

Example entries begin here.
{"columns": ["Compound", "Dmax"],
 "data": [
  ["Cn1c(=O)n(C2CCC(=O)NC2=O)c2ccc(N3CC(CN4CCN(c5ccc(-c6cc(-c7cc8c(o7)C7(CC7)CNC8=O)ncn6)cc5)CC4)C3)cc21 (centres unmarked)", "> 50%"],
  ["C[C@@H]1CNc2c(sc3ccc4nc(N5CCC(OC6CCC7(CC6)CN(c6ccc8c(c6)n(C)c(=O)n8C6CCC(=O)NC6=O)C7)CC5)ccc4c23)C(=O)N1 (some centres unmarked)", "> 75%"],
  ["C[C@@H]1CNc2c(sc3ccc4nc(N5CCN(CC6CC7(CCN(c8ccc9c(N%10CCC(=O)NC%10=O)cncc9c8)CC7)C6)CC5)ccc4c23)C(=O)N1", "> 75%"],
  ["C[C@@H]1CNc2c(sc3ccc4nc(N5CC[C@H](N(C)C6CC7(CCN(c8ccc9c(c8)n(C)c(=O)n9C8CCC(=O)NC8=O)CC7)C6)C(F)(F)C5)ccc4c23)C(=O)N1 (some centres unmarked)", "> 75%"],
  ["COc1cc(-c2nccc(-c3cc4c([nH]3)C3(CC3)CNC4=O)n2)ccc1N1CCN(CC2CN(c3ccc4c(c3)n(C)c(=O)n4C3CCC(=O)NC3=O)C2)CC1 (centres unmarked)", "50 to 75%"],
  ["O=C1CCN(c2cncc3c(CCN4CCN(c5ccc(-c6nccc(-c7cc8c([nH]7)C7(CCC7)CNC8=O)n6)c(F)c5)CC4)cccc23)C(=O)N1", "> 75%"],
  ["Cn1c(=O)n(C2CCC(=O)NC2=O)c2cccc(N3CCC(N4CCN(c5ccc(-c6nccc(-c7cc8c([nH]7)C7(CCCC7)CNC8=O)n6)cc5)CC4)C3)c21 (centres unmarked)", "50 to 75%"],
  ["C[C@@H]1CNc2c(sc3ccc4nc(N5CCC(N(CC(F)F)C6CC7(CCN(c8ccc9c(c8)n(C)c(=O)n9C8CCC(=O)NC8=O)CC7)C6)CC5)ccc4c23)C(=O)N1 (some centres unmarked)", "> 75%"]
]}

Request: Provide the reported Dmax (system: MK2 (Homo sapiens)) for Cn1c(=O)n(C2CCC(=O)NC2=O)c2cccc(-n3ccc(N4CCN(c5ccc(-c6nccc(-c7cc8c([nH]7)C7(CCCC7)CNC8=O)n6)cc5)CC4)c3)c21 (centres unmarked)
Response: > 50%

Request: Enter measured Dmax, system MK2 (Homo sapiens), for the compound shown: Cn1c(=O)n(C2CCC(=O)NC2=O)c2ccc(N3CC(CN4CCN(c5ccc(-c6cc(-c7cc8c([nH]7)C7(CC7)CNC8=O)ncn6)cc5)CC4)C3)cc21 (centres unmarked)
Response: 50 to 75%

Request: Find Dmax for `C[C@@H]1CNc2c(sc3ccc4nc(N5CCN(CCC6CCC7(CC6)CCN(C(=O)c6ccc(Cl)c(N8CCC(=O)NC8=O)c6)CC7)CC5)ccc4c23)C(=O)N1` on MK2 (Homo sapiens) and write it down.
Response: > 75%
